# Protocol details: chemical genetic growth profiling, strain panel (AID 1159580);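 further: tested at 20 µM; growth read once vehicle control cultures reached saturation at 30 °C; 1 = growth at the plate median or of vehicle wells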
# Run conditions: S. cerevisiae deletion strains, growth OD, locus YJL134W, strain LCB3, hits give low values
Hit rate of the full screen: of about 5,500 compounds, about 2,000 (36%) were called active. Roughly 18% stayed inconclusive and do not appear here. The list shows a part of the results.
// reported normalized growth per item
Number only, no unit.

Molecule | normalized growth
Cc1cc(O)cc(=O)o1 | 0.994
Nc1ccccc1C(=O)CC(N)C(=O)O (centres undefined) | 0.991
Cc1cc(O)cc(C)c1Cl | 0.998
CC(C)(Sc1cc(C(C)(C)C)c(O)c(C(C)(C)C)c1)Sc1cc(C(C)(C)C)c(O)c(C(C)(C)C)c1 | 1.01
Nc1c2ccccc2nc2ccccc12 | 1.01

[Q] Which measured normalized growth value corresponds to CC(=O)OC1CC(OC(C)=O)C2(C)C(CC(OC(C)=O)C3(C)C4=CC(=O)OC(=O)C4(C)CCC32)C1(C)C (centres undefined) ?
[A] 0.997

[Q] Also, Cc1cc(O)ccc1Cl please.
[A] 1.01

[Q] Moving on to C[C@@H]1OC(O[C@H]2[C@H](O)[C@@H](O)[C@H](OC[C@H]3O[C@@H](OC(=O)[C@]45CCC(C)(C)CC4C4=CCC6[C@@]7(C)CC[C@H](OC8OC[C@H](O)[C@H](O)[C@H]8OC8O[C@@H](C)[C@H](O)[C@@H](O)[C@H]8O)[C@@](C)(CO)C7CC[C@@]6(C)[C@]4(C)CC5)[C@H](O)[C@@H](O)[C@@H]3O)O[C@@H]2CO)[C@H](O)[C@H](O)[C@H]1O (some centres undefined)
[A] 0.991

[Q] What do you get for COc1ccc2[nH]cc(CCN)c2c1 ?
[A] 0.988

====

# Protocol details: chemical genetic growth profiling, strain panel (AID 1159580)
# Run conditions: S. cerevisiae deletion strains, growth OD, locus YLR418C, strain cdc73, hits give low values
About 2,000 (36%) of roughly 5,500 compounds were called active. Roughly 18% stayed inconclusive and do not appear here. The list shows a part of the results.
Mark class 1 only for normalized growth values smaller than 1; exact matches and larger values are class 0.

Compound | Assigned label
COc1c(CC(=O)c2cc3c(cc2O)OC(C)(C)C(O)C3)ccc2c1C=CC(C)(C)O2 (stereo not drawn) | class 1
C[C@@H]1C(=O)O[C@H]2[C@H]1CC[C@@]1(C)C=CC(=O)[C@@]3(C)O[C@@]213 | class 0

[Q] Take the compound CC1C(=O)OC2C1CCC1(C)C=CC(=O)C3(C)OC213 (stereo not drawn) and say whether its normalized growth is less than 1.
[A] class 1

[Q] Next up: COc1ccc2c(c1)c(CC(=O)OCC(=O)O)c(C)n2C(=O)c1ccc(Cl)cc1
[A] class 0

[Q] Also need COc1ccc2c(c1)c(CC(=O)O)c(C)n2C(=O)c1ccc(Cl)cc1 , thanks.
[A] class 1

[Q] // next record COC1=C[C@@H]2[C@@H]3Cc4ccc(OC)c(O)c4[C@]2(CCN3C)CC1=O
[A] class 1

[Q] Same lookup for C[C@@H]1CC[C@H]2[C@@H](C)C(=O)O[C@@H]3O[C@@]4(C)CC[C@@H]1[C@]32OO4 , please.
[A] class 1

[Q] Again, but for Nc1c2ccccc2nc2ccccc12
[A] class 1

====

Each entry below lists one item and its recorded normalized growth value.
# Protocol details: chemical genetic growth profiling, strain panel (AID 1159580)
# Run conditions: S. cerevisiae deletion strains, growth OD, locus YGR078C, strain PAC10, hits give low values
The whole screen tested about 5,500 compounds, of which about 2,000 (36%) were called active. About 18% were inconclusive and are not listed. This is one part of the list.
Keep it simple and answer with nothing but the number.

[Q] Any idea what normalized growth was measured for N=C(N)SCCN ?
[A] 0.994

[Q] And O=C(NC1CCN(Cc2ccc(Cl)c(Cl)c2)CC1)c1ccccc1 ?
[A] 1.01

[Q] One more compound: CCc1cc2c(cc1C(=O)CC1(O)C(=O)Nc3ccc(Br)cc31)C(C)(C)CCC2(C)C (configuration not stated)
[A] 1.02

[Q] Another compound to check: CCCCCCCCCCCC[C@H](C(=O)O)[C@@H](C)C(=O)O
[A] 1.01

[Q] How about this compound: Cc1noc(C)c1-c1nc(-c2cc(C(F)(F)F)cc(C(F)(F)F)c2)no1
[A] 1.01

[Q] Okay, and O=C1CC(CSc2ccc(Cl)cc2)=NN1 ?
[A] 0.963

[Q] Likewise for CS/C(N)=N\N=C/c1c(F)cccc1Cl ?
[A] 1.01

[Q] Then what about the compound O=C(Nc1cc2cc([N+](=O)[O-])ccc2oc1=O)c1c(F)cccc1F ?
[A] 1

[Q] Query NC12CC3CC(CC(C3)C1)C2 next
[A] 0.999

[Q] Ok, now O=C(O)CSCC(=O)NC1CCN(Cc2ccccc2)CC1
[A] 1

[Q] Can you check COc1cc(N)c(Cl)cc1C(=O)NC1CCN(Cc2ccccc2)CC1 next?
[A] 0.982

[Q] And what about the compound C/C=C1\[C@H]2C=C(C)C[C@]1(N)c1ccc(=O)[nH]c1C2 ?
[A] 1.01

====

# Protocol details: chemical genetic growth profiling, strain panel (AID 1159580)
# Run conditions: S. cerevisiae deletion strains, growth OD, locus YLR058C, strain SHM2, hits give low values
In all, about 5,500 compounds went through this assay and about 2,000 (36%) were called active. Roughly 18% stayed inconclusive and do not appear here. The list shows a part of the results.
Outcome measure: normalized growth
I'd appreciate a reply containing only the number, no unit.

Compound | normalized growth
CC(C)=CCCC1(C)C=Cc2c(O)c3c(c(CC=C(C)C)c2O1)OC12C(=CC4CC1C(C)(C)OC2(C/C=C(/C)C(=O)O)C4=O)C3=O (configuration not stated) | 0.884

[Q] If you can, please state the reported normalized growth value of Cc1ccc(S(=O)(=O)NC(=O)NN2CC3CCCC3C2)cc1 (configuration not stated) .
[A] 1.01

[Q] Again, but for COC(=O)Nc1nc2ccc(Sc3ccccc3)cc2[nH]1
[A] 0.996

====

# Protocol details: chemical genetic growth profiling, strain panel (AID 1159580);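 further: tested at 20 µM; growth read once vehicle control cultures reached saturation at 30 °C; 1 = growth at the plate median or of vehicle wells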
# Run conditions: S. cerevisiae deletion strains, growth OD, locus YDR159W, strain sac3, hits give low values
About 2,000 (36%) of roughly 5,500 compounds were called active. Not shown: some 18% with an inconclusive outcome. This is one part of the list.
Under this convention, Yes denotes normalized growth strictly below 1 and No denotes normalized growth at or above 1.

Molecule | Assigned label
C[C@@H]1CC[C@H]2[C@@H](C)C(O)O[C@@H]3O[C@@]4(C)CC[C@@H]1[C@]32OO4 (stereo not given in full) | Yes
FC(F)(F)c1ccccc1-n1ccnc1 | No
COc1c(-c2coc3cc4c(cc3c2=O)CC(OC(C)=O)C(C)(C)O4)ccc2c1C=CC(C)(C)O2 (stereo not given) | No
CC1(C)CC[C@@]2(C(=O)O)C(C1)C1=CCC3[C@@]4(C)CC[C@H](O)C(C)(C)C4CC[C@@]3(C)[C@]1(C)C[C@@H]2O (stereo not given in full) | Yes
CC1(C)CC[C@]2(C(=O)O)CC[C@]3(C)C(=CCC4[C@@]5(C)CC[C@H](O)[C@@](C)(CO)C5CC[C@]43C)C2C1 (stereo not given in full) | No

[Q] Quick check: does NNc1nncc2ccccc12 have normalized growth under 1?
[A] No

[Q] Also CC(=O)/C=C\[C@@H]1[C@@]2(C)CCCC(C)(C)C2CC[C@@]1(C)O (stereo not given in full) , if possible.
[A] Yes

====

# Protocol details: chemical genetic growth profiling, strain panel (AID 1159580);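 further: tested at 20 µM; growth read once vehicle control cultures reached saturation at 30 °C; 1 = growth at the plate median or of vehicle wells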
# Run conditions: S. cerevisiae deletion strains, growth OD, locus YEL061C, strain CIN8 (second series)
In all, about 5,500 compounds went through this assay and about 2,000 (36%) were called active. Roughly 18% stayed inconclusive and do not appear here. No stated cut-off is given here; in the data, active means normalized growth mostly below about 0.91 (no sharp cut-off); inconclusive means no clear call, values can overlap the other calls; inactive means mostly above about 0.92. This is one part of the list.
Returns: one label drawn from active, inactive

Field: example entries. Status: answers known.
Molecule | Assigned label
Nc1c2ccccc2nc2ccccc12 | active
CCOc1ccc2nc3cc(N)ccc3c(N)c2c1 | inactive

[Q] Outcome? O=c1ccc2ccc(O)cc2o1
[A] inactive

[Q] Same question for Cc1ccc(N=CN(C)C=Nc2ccc(C)cc2C)c(C)c1 please.
[A] inactive

[Q] And the next one, O=C(CNC(=O)c1ccc(Cl)cc1)NO ?
[A] inactive

[Q] Now the same for C#C[C@]1(O)CCC2C3CCC4=CC(=O)CC[C@@H]4C3CC[C@@]21C (stereo partly drawn)
[A] inactive

[Q] Again, but for C#C[C@]1(O)CCC2C3CCC4=C(CCC(=O)C4)C3CC[C@@]21C (stereo partly drawn)
[A] inactive

====

# Protocol details: chemical genetic growth profiling, strain panel (AID 1159580);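 further: tested at 20 µM; growth read once vehicle control cultures reached saturation at 30 °C; 1 = growth at the plate median or of vehicle wells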
# Run conditions: S. cerevisiae deletion strains, growth OD, locus YMR078C, strain ctf18, hits give low values
The whole screen tested about 5,500 compounds, of which about 2,000 (36%) were called active. About 18% were inconclusive and are not listed. Some of the results follow.
Outcome measure: normalized growth
No unit in the answer, please; the number alone is enough.

Compound | Recorded number
CC(=O)NCc1c(I)c(NC(C)=O)c(I)c(C(=O)O)c1I | 0.984

[Q] # input compound: COc1cc(C(=O)O[C@H]2CC[C@@]3(C)[C@@H]4CC[C@H]5[C@]6(O)C[C@H](O)[C@@]7(O)[C@@H](CN8C[C@@H](C)CC[C@H]8[C@@]7(C)O)[C@]6(O)C[C@@]53O[C@]24O)cc(OC)c1OC ; wanted: its normalized growth
[A] 0.99

[Q] Query C/C=C(/C)C(=O)O[C@H]1CC[C@@]2(C)[C@@H]3CC[C@H]4[C@]5(O)C[C@H](O)[C@@]6(O)[C@@H](CN7C[C@@H](C)CC[C@H]7[C@@]6(C)O)[C@]5(O)C[C@@]42O[C@]13O next
[A] 0.958

[Q] Do the same for CC(=O)/C=C\[C@@H]1[C@@]2(C)CCCC(C)(C)C2CC[C@@]1(C)O (stereo partly specified) please
[A] 0.975
